Listed below: residual activity values for each entry.
target or test system: DDR2 (human)
method notes: radiometric filter-binding kinase assay, Kinase HotSpot
assay context: compound 0.5 µM; ATP 10 µM
observation type: residual activity (%)

chem_smiles=N#Cc1c(NC(=O)c2cccc3ccccc23)sc2c1CCCC2 target_or_test_system="DDR2 (human)" units_label=% recorded_measurement=95.8
chem_smiles=O=c1cc(N2CCOCC2)oc2c(-c3ccccc3)cccc12 target_or_test_system="DDR2 (human)" units_label=% recorded_measurement=91.3
chem_smiles=O=C1NC(=O)c2c1c1c3ccccc3[nH]c1c1[nH]c3cc(Br)ccc3c21 target_or_test_system="DDR2 (human)" units_label=% recorded_measurement=91.8
chem_smiles=Cn1cc(/C=C2\C(=O)Nc3ccc(S(N)(=O)=O)cc32)c2ccccc21 target_or_test_system="DDR2 (human)" units_label=% recorded_measurement=100
chem_smiles=O=C1NC(=O)c2cc(Nc3ccc(F)cc3)c(Nc3ccc(F)cc3)cc21 target_or_test_system="DDR2 (human)" units_label=% recorded_measurement=99.6
chem_smiles=CCOc1cc2ncnc(Nc3cccc(Br)c3)c2cc1OCC target_or_test_system="DDR2 (human)" units_label=% recorded_measurement=100
chem_smiles=O=c1[nH]c2ccccc2n1C1CCN(Cc2ccc(-c3nc4cc5[nH]cnc5cc4nc3-c3ccccc3)cc2)CC1 target_or_test_system="DDR2 (human)" units_label=% recorded_measurement=99.2
chem_smiles=Cc1cc(Nc2nc(-c3ccccc3)nc3ccccc23)n[nH]1 target_or_test_system="DDR2 (human)" units_label=% recorded_measurement=93.2
chem_smiles=COc1cc2c(cc1OC)-c1[nH]nc(Nc3cccc(F)c3)c1C2 target_or_test_system="DDR2 (human)" units_label=% recorded_measurement=110
chem_smiles=COc1cc2c(Nc3ccc(Br)cc3F)ncnc2cc1OCC1CCN(C)CC1 target_or_test_system="DDR2 (human)" units_label=% recorded_measurement=68

Hey, just so you know, these numbers are from the kinase profiling compilation of Christmann-Franck et al. (2016).
